biological target: Kappa-type opioid receptor (Homo sapiens) (UniProt P41145); experiment: kappa opioid receptor blockers – cell-based, luminescence, uHTS (AID 1778); settings: KOR beta-arrestin recruitment, antagonist mode, stronger effect = higher value; at 10 µM unless noted
Sequence (P41145 whole entry, looked up): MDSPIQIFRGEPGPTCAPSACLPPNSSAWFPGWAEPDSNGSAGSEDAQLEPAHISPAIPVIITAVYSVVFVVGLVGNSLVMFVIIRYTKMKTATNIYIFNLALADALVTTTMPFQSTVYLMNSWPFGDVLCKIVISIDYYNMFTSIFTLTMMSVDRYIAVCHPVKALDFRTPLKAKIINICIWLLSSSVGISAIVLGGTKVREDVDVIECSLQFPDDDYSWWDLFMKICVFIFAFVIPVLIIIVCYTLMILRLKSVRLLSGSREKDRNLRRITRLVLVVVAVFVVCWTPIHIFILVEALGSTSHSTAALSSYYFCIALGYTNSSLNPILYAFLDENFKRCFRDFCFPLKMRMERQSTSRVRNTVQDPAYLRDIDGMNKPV
About 260 (0.09%) of roughly 290,000 compounds were called active. Only a selection was taken, and actives are over-represented in it overall. Results with a measured potency or affinity are listed apart.
compounds and their reported inhibition
Write it as a number; the unit % goes unstated.

q: Report inhibition, nothing else, for this compound: C(=N\Nc1nc(-c2ccccn2)nc2ccccc12)/c1ccccc1
a: 76.2

q: Report inhibition, nothing else, for this compound: C/C(=N\NC(N)=S)c1ccccc1
a: 11.9

q: Report inhibition, nothing else, for this compound: Cc1cc([N+](=O)[O-])nn1CC(=O)NCCc1c[nH]c2ccccc12
a: 4.9

====

molecules and their reported inhibition
target: Kappa-type opioid receptor (Homo sapiens) (UniProt P41145); assay: kappa opioid receptor blockers – cell-based, luminescence, uHTS (AID 1778); conditions: KOR beta-arrestin recruitment, antagonist mode, stronger effect = higher value; at 10 µM unless noted
The campaign covered roughly 290,000 compounds. About 260 (0.09%) were called active. The list comes from a sample in which actives are over-represented; it also holds close analogues and randomly drawn compounds. Potency and affinity values are given separately.

Below, 8 molecules whose answers are already recorded.
q: Please respond with reported inhibition (system Kappa-type opioid receptor (Homo sapiens) (UniProt P41145)) for Cc1ccc(CNC(=O)C2CCCN(c3nc4ccccc4o3)C2)cc1 (stereo not drawn) .
a: -1.2% (inactive)

q: Please respond with reported inhibition (system Kappa-type opioid receptor (Homo sapiens) (UniProt P41145)) for CCOCCCNC(=O)C(c1ccc(C)cc1)N(Cc1ccc2c(c1)OCO2)C(=O)CNC(C)=O (stereo not drawn) .
a: -0.2% (inactive)

q: Please respond with reported inhibition (system Kappa-type opioid receptor (Homo sapiens) (UniProt P41145)) for C=C1C(=O)O[C@@H]2C[C@@H](C)[C@@H]3C=CC(=O)[C@@]3(C)[C@@H](OC(C)=O)[C@H]12 .
a: 26.1% (inactive)

q: Please respond with reported inhibition (system Kappa-type opioid receptor (Homo sapiens) (UniProt P41145)) for N#CCCN(NC1=NS(=O)(=O)c2ccccc21)C(=O)c1ccccc1Br .
a: 8.1% (inactive)

q: Please respond with reported inhibition (system Kappa-type opioid receptor (Homo sapiens) (UniProt P41145)) for Cc1ccc(NC(=O)C2CCN(S(=O)(=O)c3ccc4c(c3)NC(=O)C(C)S4)CC2)c(C)c1 (stereo not drawn) .
a: 11.1% (inactive)

q: Please respond with reported inhibition (system Kappa-type opioid receptor (Homo sapiens) (UniProt P41145)) for O=C(N/N=C(\c1ccccc1)c1cccnc1)c1cc(O)ccc1O .
a: -0.3% (inactive)

q: Please respond with reported inhibition (system Kappa-type opioid receptor (Homo sapiens) (UniProt P41145)) for COc1ccc(/C=C/c2ccc3c(Br)ccc(O)c3n2)cc1 .
a: 0.3% (inactive)

q: Please respond with reported inhibition (system Kappa-type opioid receptor (Homo sapiens) (UniProt P41145)) for CCCOCn1cc(F)c(=O)[nH]c1=O .
a: 20.7% (inactive)

---
q: Please respond with reported inhibition (system Kappa-type opioid receptor (Homo sapiens) (UniProt P41145)) for COc1cc(/C=N/n2nnnc2N)ccc1OC(C)C .
a: 26.9% (inactive)

q: Please respond with reported inhibition (system Kappa-type opioid receptor (Homo sapiens) (UniProt P41145)) for CC(CCc1ccc(O)cc1)NCCC(c1ccccc1)c1ccccc1 (stereo not drawn) .
a: 42.6% (inactive)

q: Please respond with reported inhibition (system Kappa-type opioid receptor (Homo sapiens) (UniProt P41145)) for Cc1ccc(NC(=O)c2cc(N3C(=O)C=CC3=O)ccc2N2CCOCC2)cc1Cl .
a: -45.3% (inactive)

q: Please respond with reported inhibition (system Kappa-type opioid receptor (Homo sapiens) (UniProt P41145)) for COCc1nnc(NC(=O)c2ccc(NC(C)=O)cc2)s1 .
a: 21% (inactive)

q: Please respond with reported inhibition (system Kappa-type opioid receptor (Homo sapiens) (UniProt P41145)) for COc1ccccc1CCNC(=O)C(=O)NCC1OCCN1S(=O)(=O)c1cc(F)ccc1F (stereo not drawn) .
a: -43.3% [at 20 µM] (inactive)
